// data source = PubChem BioAssay

Assay: reduction of polyQ htt aggregates in cells – imaging, exon1htt(103Q)mCFP cells, high-content imaging, primary screen (AID 483);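 also: compound exposure lasted 3 days before fixation; percent of the per-plate median nuclei count of sample wells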
Conditions: exon1htt(103Q)mCFP cell line, aggregate imaging, at 2 µM; measured here: cell count, toxicity
# nuclei count per entry

| MOLECULE | UNIT DESCRIPTOR | nuclei count |
| --- | --- | --- |
| COC(=O)c1sccc1NC(=O)c1ccco1 | % | 90.7 |
| CCC(=O)Oc1ccc2c(C)cc(=O)oc2c1C | % | 98.2 |
| COC(=O)Cn1cnc2sc(C)c(S(=O)(=O)N3CCC(C)CC3)c2c1=O | % | 106 |
| Cc1cc(C)n2nc(S(=O)(=O)N(C)Cc3ccccc3)nc2n1 | % | 110 |
| O=C(CCCSc1nc2ccccc2s1)NC1=NCCS1 | % | 102 |
| COc1ccc(NC(=O)Nc2ccccc2C)c(OC)c1 | % | 107 |
| CCCCCC(=O)N(CN1C(=O)CCC1=O)c1ccccc1 | % | 100 |
| O=C1COc2ccc(C(=O)COC(=O)CCc3ccc(S(=O)(=O)N4CCOCC4)cc3)cc2N1 | % | 90.4 |
| O=C(Nc1ccccc1)N1C(=O)C2(OCCO2)c2ccccc21 | % | 91.7 |
| Cc1nnc(SCC(=O)NCc2ccc3c(c2)OCO3)s1 | % | 101 |
| CCOC(=O)N1CCC(NC(=O)CCC(=O)N2CC(C)Oc3ccc(Cl)cc32)CC1 (stereo unspecified) | % | 81.9 |

###

Assay: TLR3 IRF3 reporter activation blockers – cell-based, poly I:C stimulus, luciferase, 10K MLSCN set, primary screen (AID 602277)
Conditions: HEK293-TLR3 RL24 IRF3 luciferase reporter, at 10 µM, stronger effect = higher value
# inhibition per entry

| COMPOUND | inhibition / % |
| --- | --- |
| Cc1cccc2c1N(CC(=O)OC(C)C)C(=O)C2=O | 29 |
| COc1ccc(C)cc1-n1nnnc1SC/C(O)=C(\C#N)c1nc2ccccc2[nH]1 | 27 |
| Cn1cnnc1Sc1nc2c(c(=O)n(C)c(=O)n2C)n1Cc1ccccc1Cl | 21.9 |
| O=C(NCc1ccco1)c1cccc(S(=O)(=O)N2CCCCC2)c1 | -7.47 |
| Cn1c(SCc2ccc3c(c2)OCO3)nnc1-c1ccccc1 | -38.3 |
| CC(C)CCSc1nc2c(c(=O)[nH]c(=O)n2C)n1CCCc1ccccc1 | 29.8 |
| Cc1ccc(OC(=O)CCC(=O)OCCCC(F)(F)C(F)(F)F)cc1 | 21.1 |
| CC1CCCN(c2ccc(C(=O)NCc3cccs3)cn2)C1 (stereo unspecified) | -71.3 |
| CC1CCc2c(sc3c2C2=NS(=O)(=O)CCN2C=N3)C1 (stereo unspecified) | 33.3 |
| Cc1occc1C(=O)N1CCN(c2ncccn2)CC1 | 4.37 |
| Cc1cc(C(=O)N2CCCc3ccccc32)no1 | -14.5 |

###

# fluorescence slope per entry
Biological target: Voltage-gated potassium channel subunit beta-2 (Rattus norvegicus) (UniProt P62483)
Sequence (P62483 whole entry, looked up): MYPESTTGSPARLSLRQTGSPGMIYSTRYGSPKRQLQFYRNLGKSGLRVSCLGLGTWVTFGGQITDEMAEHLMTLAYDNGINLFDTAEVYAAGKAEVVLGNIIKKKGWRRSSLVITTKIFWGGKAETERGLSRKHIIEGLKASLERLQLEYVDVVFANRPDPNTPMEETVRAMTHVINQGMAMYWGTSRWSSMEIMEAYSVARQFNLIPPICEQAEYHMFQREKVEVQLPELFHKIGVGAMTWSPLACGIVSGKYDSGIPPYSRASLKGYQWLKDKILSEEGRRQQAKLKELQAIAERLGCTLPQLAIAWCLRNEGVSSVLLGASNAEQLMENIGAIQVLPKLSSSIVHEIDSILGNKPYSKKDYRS
Assay: inhibitors of rat Kvbeta2 reductase activity – biochemical, NADPH fluorescence, primary screen (AID 622);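 also: slope of raw intensity against log time taken from 70 to 1610 s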
Settings: recombinant KvBeta, 4-cyanobenzaldehyde reduction, at 10 µM, stronger effect = higher value

| COMPOUND | fluorescence slope |
| --- | --- |
| CN1CCN(S(=O)(=O)c2ccc(NC(=O)Nc3cccc(Cl)c3)cc2)CC1 | -0.614 |
| O=c1[nH]c2cc3c(cc2cc1C(c1nnnn1Cc1ccccc1)N1CCCc2ccccc21)OCO3 (configuration not stated) | -0.621 |
| Cc1cc(NC(=O)CS(=O)(=O)c2cn(Cc3cccc(F)c3)c3ccccc23)no1 | -0.262 |
| CC(=O)c1ccc(NC(=O)CCc2c(C)nc3ncnn3c2C)cc1 | -0.498 |
| CO/C([O-])=N/c1c[n+](-c2ccc(C)cc2)no1 | -0.471 |
| O=C(Cn1cnc2c(cnn2-c2ccc(F)cc2)c1=O)N1CCN(c2ccccc2)CC1 | -0.506 |
| COC(=O)c1[nH]c2cc(OC)ccc2c1NC(=O)CCN1CCCCC1 | -0.55 |
| Cc1cc(NC(=O)CCC(=O)N(CC2CCCO2)C(C(=O)NC2CCCC2)c2ccccc2C)no1 (configuration not stated) | -0.453 |
| COc1ccc2c(c1)CCc1c(C(=O)NCc3cccnc3)noc1-2 | -0.462 |
| CCOc1ccccc1C(=O)Nn1c(C2CCC2)nc2ccccc2c1=O | -0.467 |
| CC(=O)N1CCN(S(=O)(=O)c2ccc(S(=O)(=O)NC3CC3)cc2)CC1 | -0.444 |
| CCCCc1ccc(NC(=O)C2CCCO2)cc1 (configuration not stated) | -0.376 |
| Cc1cc(N2C(=O)CC(N3CCN(c4ccc(C(=O)c5cccs5)cc4)CC3)C2=O)no1 (configuration not stated) | -0.392 |
| COc1ccc(CNC(=O)C(c2ccco2)N(Cc2cccs2)C(=O)Cc2cccs2)cc1 (configuration not stated) | -0.6 |
| COc1cccc(C(=O)n2cnnc2N)c1OC | -0.382 |
| CN(C)CCCNC(=O)CCC1CCCCC1 | -0.277 |
| COc1cccc(C(c2nnnn2Cc2ccccc2)N2CCN(C(=O)c3ccco3)CC2)c1OC (configuration not stated) | -0.473 |
| CCn1nccc1C(=O)Nc1nccs1 | -0.456 |
| Cc1cnc(C(=O)Nc2ccc(N3CCN(C(=O)OC(C)(C)C)CC3)cc2)cn1 | -0.636 |
| O=C(CSc1ccccc1C(=O)NCCCN1CCCC1=O)NCc1ccco1 | -0.358 |
| O=C(Nc1ccccc1Cl)c1c(F)c(F)c(F)c(F)c1F | -0.479 |
| Cc1ccc(Cl)cc1NC(=O)CSc1nnc(C)n1-c1ccccc1 | -0.551 |
